IC50 values for Lysine-specific demethylase 4C (Homo sapiens) compiled from several publications are listed below.

Here are 5 molecules together with their reported answers.
CN(c1ccccc1)c1ccc2c(c1)OCC[C@H]2CNc1cnccc1C(=O)O = 0.1 to 1 µM
CN1CCN(c2cccc(N(C)c3ccc(Oc4nc(O)c5ccncc5n4)cc3)c2)CC1 = ≤ 0.1 µM
O=C(O)c1ccncc1NCC1CCCc2ccccc21 (stereo not shown) = 0.1 to 1 µM
CN1CCN(c2ccc(N(C)c3ccc(Oc4nc(O)c5ccncc5n4)cc3)cc2)CC1 = 0.1 to 1 µM
Cc1ccc2c(ccn2-c2ccc(Oc3nc(O)c4ccncc4n3)cc2)c1 = ≤ 0.1 µM

Record IC50 per entry; entries follow.
1. O=C(O)c1ccnc(-c2cn(CCN3CCc4cc(F)ccc43)cn2)c1
2. O=C(O)c1ccnc(-n2ccc(CCc3ccccc3)n2)c1
3. CC(=O)N1CCC[C@H](n2cc(Oc3nc(O)c4ccncc4n3)cn2)C1
4. O=C(O)c1ccnc(-n2nccc2OCc2ccc(Cl)cc2/C=C/c2ccc(F)cc2)c1
5. Cn1cnc(-c2cc(C(=O)O)ccn2)c1-c1ccc(Cl)c(Cl)c1
6. Oc1nc(OC2Cc3ccccc3C2)nc2cnccc12

1. 0.1 to 1 µM
2. 0.1 to 1 µM
3. ≤ 0.1 µM
4. 1 to 10 µM
5. 0.1 to 1 µM
6. ≤ 0.1 µM

Hi! Can you tell me IC50 for each of these molecules?
1. Cc1ccc(CNc2cnccc2C(=O)O)o1
2. O=C(O)c1ccncc1NCC1CCCc2cc(OC(F)(F)F)ccc21 (stereo not shown)
3. CCCn1cnc(-c2cc(C(=O)O)ccn2)c1
4. CNCC(=O)N1CC[C@H](n2cc(Oc3nc(O)c4ccncc4n3)cn2)C1
5. Cc1cc2c(cc1C)C(CNc1cnccc1C(=O)O)CCO2 (stereo not shown)

["≤ 0.1 µM", "1 to 10 µM", "≤ 0.1 µM", "≤ 0.1 µM", "0.1 to 1 µM"]

* * *

This section presents IC50 values reported for UniProt Q9H3R0 in the literature.

// worked examples, IC50 included
CN(c1ccc(OC(F)(F)F)cc1)c1ccc2c(c1)OCC[C@H]2CNc1cnccc1C(=O)O = 100 to 1000 nM
CN(C)CCc1cnn(-c2cc(C(=O)O)ccn2)c1OCc1ccc(F)cc1 = 100 to 1000 nM
Cn1cnc(-c2cc(C(=O)O)ccn2)c1-c1ccc(C2CC2)cc1 = 1000 to 10000 nM
O=C(O)c1ccncc1NC[C@@H]1CCOc2cc(-c3ccccc3O)ccc21 = 100 to 1000 nM
Oc1nc(Oc2cnn(C(c3ccccc3)C3CC3)c2)nc2cnccc12 (stereo not shown) = ≤ 100 nM

Fill in IC50 for each of the 6 compounds listed.
1. CN(c1ccccc1)c1ccc2c(c1)CCOC2CNc1cnccc1C(=O)O (stereo not shown)
2. CN(c1ccc2c(c1)OCC[C@H]2CNc1cnccc1C(=O)O)c1ccc2ccoc2c1
3. O=C(O)c1ccncc1NCc1cc2ccccc2o1
4. Cn1nc(Nc2cnccc2C(=O)O)c2ccccc21
5. O=C(O)c1ccnc(-n2nccc2OCc2ccc(F)cc2CCc2ccc(F)cc2)c1
6. Oc1nc(OCc2c(F)cccc2F)nc2cnccc12

1. 100 to 1000 nM
2. 100 to 1000 nM
3. ≤ 100 nM
4. < 100 nM
5. 1000 to 10000 nM
6. 100 to 1000 nM

Batch request: IC50 per item, same order as input.
1. Cn1cnc(-c2nccc3c(O)nc(Oc4cnn(Cc5ccccc5)c4)nc23)c1
2. Oc1cc(Cc2cccc(Cl)c2)nn1-c1cc(-c2nnn[nH]2)ccn1
3. Oc1nc(Oc2cnn(C3CCCC3)c2)nc2cnccc12
4. CN(c1cccc(C#N)c1)c1ccc2c(c1)OCC[C@H]2CNc1cnccc1C(=O)O
5. O=C(O)c1ccncc1NC[C@@H]1CCOc2cc(-c3ccccc3C(F)(F)F)ccc21
6. CN(c1ccc(Oc2nc(O)c3ccncc3n2)cc1)c1ccccn1
7. Cn1nc(Nc2cnccc2C(=O)O)c2cc(C(F)(F)F)ccc21

100 to 1000 nM
1000 to 10000 nM
≤ 100 nM
100 to 1000 nM
100 to 1000 nM
100 to 1000 nM
< 100 nM

Supply IC50 value. Item: `CC[C@@H](C)c1ccc(N(C)c2ccc(Oc3nc(O)c4ccncc4n3)cc2)cc1`
1000 to 10000 nM
